Test system: J2 IgG HC Y50F, PDB:9OJV_1+PDB:9OJV_2
TEST_SUMMARY: BLI steady state
SETTINGS: 100 mM KCl; kinetic Kd 94 ± 49 nM; BLI: 25 mM Tris-HCl pH 7.5, 100-400 mM KCl (per row), 2 mM MgCl2, 25 C, IgG immobilized on Protein A; FP: 25 mM Tris-HCl pH 7.5, 100 mM KCl, 2 mM MgCl2, 21 C
METRIC_NAME: pKd
# pKd = -log10(concentration in molar units)

Request: Please give the measured pKd for this sequence: GUUGUAAAGAAAUAUAGGCU / AGCCUAUAUUUCUUUACAAC [20-bp dsRNA]
Result: 6.37
